# TESTED ON: PDGF-BB (human, UniProt P01127 82-190)
# Sequence (P01127 82-190): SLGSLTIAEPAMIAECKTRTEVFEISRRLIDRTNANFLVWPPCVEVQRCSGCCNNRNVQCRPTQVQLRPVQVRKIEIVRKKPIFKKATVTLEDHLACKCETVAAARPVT
# EXPERIMENTAL DETAILS: single-molecule nanopore (carrier dimerization, biphasic Hill fit); apparent sandwich Kd; 200 pM carrier; Carriers (200 pM total) incubated with protein at 37 °C for 2 h; nanopore measurement in 100 mM KCl, 10 mM Tris-EDTA pH 8.0, -300 mV
# PROTOCOL CONDITIONS: protein: recombinant; chain copies: 2; 2 identical carriers per protein dimer; first 12 nt pair with carrier overhang
READOUT LABEL: Kd

Tell me its Kd given PDGF probe carrier (structured_DNA, 5' phosphate, ligated to carrier) DNA: GGGCGGCGACCTTTTTTTCACAGGCTACGGCACGTAGAGCATCACCATGATCCTGTG as the entry.
~1.8 pM
